Test system: U2OS PTBP1-KO;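 further: FLICK assay: SYTOX Green fluorescence of dead cells tracked over time after drugging in 96-well plates, with total cell counts taken from Triton X-100 lysed wells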
assay_procedure: maximum observed lethal fraction; higher = more cell death
reported_conditions: 0.0316 µM
measured_property: maximum observed lethal fraction

compound	measured_property	result_number
COC(=O)C[C@](O)(CCCC(C)(C)O)C(=O)O[C@@H]1C(OC)=C[C@]23CCCN2CCc2cc4c(cc2[C@H]13)OCO4 [Homoharringtonine]	maximum observed lethal fraction	0.165
CC(=O)[C@]1(O)Cc2c(O)c3c(c(O)c2[C@@H](O[C@H]2C[C@H](N)[C@H](O)[C@H](C)O2)C1)C(=O)c1ccccc1C3=O [Idarubicin]	maximum observed lethal fraction	0.2
C[C@H]1CCC/C=C/[C@@H]2C[C@H](O)C[C@H]2[C@H](O)/C=C/C(=O)O1 [Brefeldin A]	maximum observed lethal fraction	0.168
C#C[C@@]1(O)[C@@H](CO)O[C@@H](n2ccc(N)nc2=O)[C@@H]1O [Ethynylcytidine]	maximum observed lethal fraction	0.0709
CN(C)CC[C@H](CSc1ccccc1)Nc1ccc(S(=O)(=O)NC(=O)c2ccc(N3CCN(Cc4ccccc4-c4ccc(Cl)cc4)CC3)cc2)cc1[N+](=O)[O-] [ABT-737]	maximum observed lethal fraction	0.0704
Nc1cc(C(F)(F)F)c(-c2cc(N3CCOCC3)nc(N3CCOCC3)n2)cn1 [Buparlisib]	maximum observed lethal fraction	0.0937
O=C(NOC[C@H](O)CO)c1ccc(F)c(F)c1Nc1ccc(I)cc1F [Mirdametinib]	maximum observed lethal fraction	0.0994
